Origin of values: patent US20190071480A1

- SYSTEM NAME: T1, extracellular domain of activin receptor type IIB (ActRIIBecd), biotinylated (Homo sapiens (Human), UniProt Q13705 27-117, amino-biotinylated with amine-PEG3-Biotin)
- T1 construct: immobilised on a streptavidin-coated sensor chip; also called biotinylated ActRIIBecd; extracellular domain of ActRIIB
- T1 sequence: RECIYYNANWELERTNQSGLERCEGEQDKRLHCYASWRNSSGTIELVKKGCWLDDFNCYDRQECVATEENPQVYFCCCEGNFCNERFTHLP
- EXPERIMENT DESCRIPTION: BIAcore SPR, biotinylated ActRIIBecd on chip; SD ±13.71 nM
QUANTITY MEASURED: Kd (nM)
Enter your answer as a number in nM; do not include the unit.

Input: Quick one: Kd for Recombinant polypeptide of clones 30 + 12 (designed binder) TALDGTRGAQGSGGGGGGGGGGGGGGGGGGGGAGRGHGRRGRSRCSRKSLHVDFKELGAQAKHKQYKRLKSSCKRHPLY ?
Output: 61.1
